system: ATP; assay: switch fluorescence ratio, 500 uM ATP over buffer (Cy3 cluster intensity, sum of 5 cycles each) (fold (ratio)); higher = stronger signal-on switching upon ATP binding; sequences stand for … in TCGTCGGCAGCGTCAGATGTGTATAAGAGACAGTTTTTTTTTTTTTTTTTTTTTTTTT…TC; conditions: aptamer strand: ATP DNA aptamer (quencher-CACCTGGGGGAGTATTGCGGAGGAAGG + anchor), 100 nM annealed; ATP concentration: 500 uM;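 further: ATP exposure 15 min at 22 °C before imaging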
OUTCOME_MEASURE: switch fluorescence ratio
Answers are plain numbers.

{"columns": ["SEQUENCE_ENTRY", "MEASURED_VALUE"],
 "data": [
  ["ATTATACGGC", 1.06],
  ["TATAGAAATA", 0.998]
]}

Below are some sequences; for each one, tell me its switch fluorescence ratio.
1. ACCATAGAAT
2. CAGGGGGGTC
3. TGACGGATGC
4. AAAGGGAACC
5. TTTGATTAGG
6. TCTAGTTAAA

Resp:
[1.01, 1.02, 1.2, 1.02, 1.01, 0.986]

Items follow; give switch fluorescence ratio for each.
1. TGAAAGCCCG
2. ACTATTATCT
3. TATCCAACAT
4. CCCATCCCCG
5. TGTAATTCTA
6. GGACGGTATG
7. GGAGTTGTTA
8. GGACTCCCAT

Resp:
[1.05, 1.02, 1.04, 1.2, 1.01, 1.02, 0.985, 1.23]

Report switch fluorescence ratio for each item below.
1. ATGCAGGTCC
2. TTTGTGTCAA
3. TGACGGTAGC
4. AGGTGCTGGT
5. CTTTCGGGGG

Resp:
1.03
1.01
1.06
0.997
1.14

* * *

test system: ATP; assay: switch fluorescence ratio, 500 uM ATP over buffer (Cy3 cluster intensity, sum of 5 cycles each) (fold (ratio)); higher = stronger signal-on switching upon ATP binding; sequences stand for … in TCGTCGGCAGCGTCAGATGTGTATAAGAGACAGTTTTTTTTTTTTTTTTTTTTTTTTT…TC; details: aptamer strand: ATP DNA aptamer (quencher-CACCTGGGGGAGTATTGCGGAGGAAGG + anchor), 100 nM annealed; ATP concentration: 500 uM;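 further: ATP exposure 15 min at 22 °C before imaging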
OUTCOME_MEASURE: switch fluorescence ratio
Answers are plain numbers.

Each sequence below has a reported value. Please supply its switch fluorescence ratio.
1. TTGTCCGAGC
2. TTAATAGTTT
3. TTGCGCTATT
4. GTGTTAAGGT

Resp:
1. 1.06
2. 0.988
3. 1.07
4. 0.99

Could you report switch fluorescence ratio for every entry in the following list?
1. ACTTTGGAGG
2. ATTTGCGTAC
3. AAAATTGGAA

Resp:
1: 1.02; 2: 1.28; 3: 1

Kindly give each listed record's switch fluorescence ratio.
1. GACACCATCC
2. CCAAGTAATT

Resp:
1.55
1.2

Look up switch fluorescence ratio for the entries below, preserving their order.
1. TGGCGGGGCG
2. CCTGTTGGGA
3. TCTGGCAGAT
4. TTACCGTGGG
5. AGTTTGTTTT

Resp:
1: 1.02; 2: 1.01; 3: 1.01; 4: 1.05; 5: 0.966

Each sequence below has a reported value. Please supply its switch fluorescence ratio.
1. AAGGATGTGT
2. ACGGAGTAAA

Resp:
[0.98, 0.999]

Required: switch fluorescence ratio, one value per sequence below.
1. AAGGTATGTT
2. CAGCGAACGG
3. CGTATTTTT

Resp:
1. 0.981
2. 1.02
3. 0.99

The following sequences each have a reported value; give each one's switch fluorescence ratio.
1. TGGACTAGAA
2. GCGCTAGGTG
3. TAAGAGTACT
4. TAAGGCTACC
5. TGGGTTGGCA
6. CTAGATGCTT

Resp:
[0.983, 2.19, 1.01, 1.05, 0.987, 1.01]

Look up switch fluorescence ratio for the entries below, preserving their order.
1. GAGCTGGTGG
2. TATGCTAAAA
3. TAAGTTAGTC
4. GGGTTGAGTT
5. ATTTACGAGT
6. ATTGAGGGGA

Resp:
[0.96, 0.965, 1.02, 0.985, 0.981, 0.994]

* * *

test system: ATP; assay: switch fluorescence ratio, 500 uM ATP over buffer (Cy3 cluster intensity, sum of 5 cycles each) (fold (ratio)); higher = stronger signal-on switching upon ATP binding; sequences stand for … in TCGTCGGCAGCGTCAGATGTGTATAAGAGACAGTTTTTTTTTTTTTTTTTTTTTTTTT…TC; conditions: aptamer strand: ATP DNA aptamer (quencher-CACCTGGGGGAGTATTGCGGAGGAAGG + anchor), 100 nM annealed; ATP concentration: 500 uM;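 further: ATP exposure 15 min at 22 °C before imaging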
OUTCOME_MEASURE: switch fluorescence ratio
One number for each entry.

{"columns": ["SEQUENCE_ENTRY", "switch fluorescence ratio"],
 "data": [
  ["GGGGGTAGTG", 0.995],
  ["TGGGTATGT", 1.03],
  ["ATCATTTAAT", 1.01]
]}

Fill in switch fluorescence ratio for each of the 7 sequences listed.
1. GGGATTCGGA
2. CGGCTTACTT
3. AAATAGTGTG
4. TTTATGGCGG
5. GCACGCAGGA
6. CGTTTTCGGG
7. AGGGTGGCTA

Resp:
1: 0.95; 2: 1.07; 3: 1; 4: 1.01; 5: 1.05; 6: 1.02; 7: 1.01

For the 2 sequences below, give their switch fluorescence ratio values.
1. AGGTTATGTG
2. GTAATGGGGT

Resp:
1. 0.999
2. 0.966

* * *

system: ATP; assay: switch fluorescence ratio, 500 uM ATP over buffer (Cy3 cluster intensity, sum of 5 cycles each) (fold (ratio)); higher = stronger signal-on switching upon ATP binding; sequences stand for … in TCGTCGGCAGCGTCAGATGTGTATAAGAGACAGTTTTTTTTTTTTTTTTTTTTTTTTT…TC; details: aptamer strand: ATP DNA aptamer (quencher-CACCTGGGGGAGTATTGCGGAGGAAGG + anchor), 100 nM annealed; ATP concentration: 500 uM;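 further: ATP exposure 15 min at 22 °C before imaging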
OUTCOME_MEASURE: switch fluorescence ratio
Numbers only.

Guide cases for switch fluorescence ratio, answers given:
{"columns": ["SEQUENCE_ENTRY", "MEASURED_VALUE"],
 "data": [
  ["TTTCGTATCG", 1.01],
  ["GCTCTTAGCG", 1.03],
  ["GGATGTGGGT", 1.01],
  ["CGTTCATGCG", 0.99],
  ["TTCTATATTT", 1.01]
]}

# per-item lookup of switch fluorescence ratio; items listed below
1. ATGTGTAACC
2. GGTTTTCAGT
3. AAACGCAAAG

Resp:
1
1.03
1.27

Would you be so kind as to report switch fluorescence ratio for each listed record?
1. GCCGTCAGTT
2. ACATGTGCGT
3. TCGGAAATTT
4. TTGATCTCGG
5. CTTCGAAGTT
6. CGATCGGATG

Resp:
0.99
1
1
1.01
0.98
1.03

Hi! Can you tell me switch fluorescence ratio for each of these sequences?
1. GAGTCAGC
2. ATATGAGCAG
3. TATGAATCAG
4. TTACATTTGG
5. GTGTTTTCGT
6. AATTGTGTAC
7. TATTAATTC

Resp:
1.08
1.02
0.998
0.985
0.993
1.05
0.972

* * *

Provide the recorded switch fluorescence ratio for the entries that follow.
tested on: ATP; assay: switch fluorescence ratio, 500 uM ATP over buffer (Cy3 cluster intensity, sum of 5 cycles each) (fold (ratio)); higher = stronger signal-on switching upon ATP binding; sequences stand for … in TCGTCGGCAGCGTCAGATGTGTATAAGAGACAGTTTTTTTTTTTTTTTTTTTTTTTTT…TC; details: aptamer strand: ATP DNA aptamer (quencher-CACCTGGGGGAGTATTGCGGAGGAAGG + anchor), 100 nM annealed; ATP concentration: 500 uM;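 further: ATP exposure 15 min at 22 °C before imaging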
Answers are plain numbers.

{"columns": ["SEQUENCE_ENTRY", "OUTCOME_MEASURE", "MEASURED_VALUE"],
 "data": [
  ["GGGAAAGCGC", "switch fluorescence ratio", 1.03],
  ["TACTCTAAAA", "switch fluorescence ratio", 1.08],
  ["TAAAATGTTC", "switch fluorescence ratio", 0.988],
  ["AGCATTGGGT", "switch fluorescence ratio", 1],
  ["GAGGGGCCAG", "switch fluorescence ratio", 0.988],
  ["TTTTGGATTT", "switch fluorescence ratio", 0.993]
]}

List switch fluorescence ratio for every entry below, keeping the order given.
1. GGGGGGTTTT
2. ATAAGTGGTG
3. AGCGCCGAGT

Resp:
1.01
0.976
0.973

* * *

test system: ATP; experiment: switch fluorescence ratio, 500 uM ATP over buffer (Cy3 cluster intensity, sum of 5 cycles each) (fold (ratio)); higher = stronger signal-on switching upon ATP binding; sequences stand for … in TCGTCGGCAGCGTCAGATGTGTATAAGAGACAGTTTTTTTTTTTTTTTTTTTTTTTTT…TC; conditions: aptamer strand: ATP DNA aptamer (quencher-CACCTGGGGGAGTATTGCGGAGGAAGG + anchor), 100 nM annealed; ATP concentration: 500 uM;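 further: ATP exposure 15 min at 22 °C before imaging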
OUTCOME_MEASURE: switch fluorescence ratio

Solved entries:
{"columns": ["SEQUENCE_ENTRY", "ASSAYED_TARGET", "OUTCOME_MEASURE", "MEASURED_VALUE"],
 "data": [
  ["CGCGTGATGG", "ATP", "switch fluorescence ratio", 1],
  ["GGCTTAGAAT", "ATP", "switch fluorescence ratio", 0.974],
  ["CGTTATGTTC", "ATP", "switch fluorescence ratio", 0.977],
  ["GGTTCTATTT", "ATP", "switch fluorescence ratio", 1.03],
  ["AACTCCTAAG", "ATP", "switch fluorescence ratio", 1.03],
  ["TTATATTTTT", "ATP", "switch fluorescence ratio", 1.02]
]}

For each listed entry, give its switch fluorescence ratio.
1. TTTATGTGTG
2. GGGGGGGCCT
3. TACCATGACC
4. CGTGGCGGGA
5. CTGTAAGCGG
6. CTTTGGAAAT
7. ACAGTGCATT

Resp:
0.999
0.999
1.11
0.923
1.03
1
1.03

For the 6 sequences below, give their switch fluorescence ratio values.
1. TTGGGGATGA
2. GCAAGAGGGT
3. GGCAGCTGGG
4. TTGGTTTGTT
5. ACTGAAGATT
6. TTTAAGACAC

Resp:
1.01
1
0.946
0.982
1.03
1.03

Each sequence below has a reported value. Please supply its switch fluorescence ratio.
1. AGGTTTTCTA
2. CCAAAGGGGT
3. GATGTAGGAA
4. ATTTATGGTA
5. GTCTTGGCTC

Resp:
[1.01, 1.06, 1.01, 0.971, 1.02]
